Values were extracted from ChEMBL document CHEMBL5543175.

# system: Protein cereblon/Tyrosine-protein phosphatase non-receptor type 1 (Homo sapiens, UniProt P18031+Q96SW2)
# Sequence (P18031 whole entry, looked up): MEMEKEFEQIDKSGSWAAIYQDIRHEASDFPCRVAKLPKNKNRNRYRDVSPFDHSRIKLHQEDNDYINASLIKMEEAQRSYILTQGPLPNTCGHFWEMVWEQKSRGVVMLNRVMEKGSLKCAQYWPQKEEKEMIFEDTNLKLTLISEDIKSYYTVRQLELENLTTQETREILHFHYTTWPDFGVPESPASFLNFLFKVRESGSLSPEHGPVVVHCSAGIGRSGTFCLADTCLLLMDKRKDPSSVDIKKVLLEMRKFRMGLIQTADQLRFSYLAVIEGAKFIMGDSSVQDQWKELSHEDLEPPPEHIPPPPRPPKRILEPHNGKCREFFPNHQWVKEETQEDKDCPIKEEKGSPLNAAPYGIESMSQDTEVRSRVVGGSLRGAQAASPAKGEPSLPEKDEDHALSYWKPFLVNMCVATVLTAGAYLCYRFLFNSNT
# Sequence (Q96SW2 whole entry, looked up): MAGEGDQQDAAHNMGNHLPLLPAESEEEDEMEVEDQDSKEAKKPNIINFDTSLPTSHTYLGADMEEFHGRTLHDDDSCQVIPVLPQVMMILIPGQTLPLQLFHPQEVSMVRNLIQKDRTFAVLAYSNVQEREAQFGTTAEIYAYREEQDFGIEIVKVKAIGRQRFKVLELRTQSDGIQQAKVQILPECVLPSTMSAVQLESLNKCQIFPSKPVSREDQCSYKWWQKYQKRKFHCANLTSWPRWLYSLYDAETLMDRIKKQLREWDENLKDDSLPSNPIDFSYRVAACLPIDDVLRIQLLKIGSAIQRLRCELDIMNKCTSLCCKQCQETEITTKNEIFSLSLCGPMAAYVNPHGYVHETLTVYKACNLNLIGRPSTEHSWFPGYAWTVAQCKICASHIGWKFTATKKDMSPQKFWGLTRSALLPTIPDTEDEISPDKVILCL
# measurement_description: PROTAC activity at PTP1B/CRBN in insulin treated human HepG2 cells assessed as protein degradation at 1250 nM incubated for 48 hrs by Western blot analysis relative to control
# Type: cell-based
Can you tell me Activity for the items I'm about to list?
Give just the numeric value; % need not be written.

Lab note: measured Activity of CC1(C)CC[C@]2(C(=O)NCCCOCCOCCOCCCNc3cccc4c3C(=O)N(C3CCC(=O)NC3=O)C4=O)CC[C@]3(C)C(=CC[C@@H]4[C@@]5(C)CC[C@H](O)C(C)(C)[C@@H]5CC[C@]43C)[C@@H]2C1 (stereo not given in full) was 78

GET /value?item= CC1(C)CC[C@]2(C(=O)NCCCCCCOCCOCCOCCOCCCCCC(=O)Nc3cccc4c3C(=O)N(C3CCC(=O)NC3=O)C4=O)CC[C@]3(C)C(=CC[C@@H]4[C@@]5(C)CC[C@H](O)C(C)(C)[C@@H]5CC[C@]43C)[C@@H]2C1 (stereo not given in full) &field=Activity returns 71

For this molecule ( C[C@H]1[C@H](C)CC[C@]2(C(=O)NCCCCCCOCCOCCOCC(=O)Nc3cccc4c3C(=O)N(C3CCC(=O)NC3=O)C4=O)CC[C@]3(C)C(=CC[C@@H]4[C@@]5(C)CC[C@H](O)C(C)(C)[C@@H]5CC[C@]43C)[C@H]12 (stereo not given in full) ), measured Activity is 77

Form: molecule = C[C@H]1[C@H](C)CC[C@]2(C(=O)NCCCCCCOCCOCCOCCOCC(=O)Nc3cccc4c3C(=O)N(C3CCC(=O)NC3=O)C4=O)CC[C@]3(C)C(=CC[C@@H]4[C@@]5(C)CC[C@H](O)C(C)(C)[C@@H]5CC[C@]43C)[C@H]12 (stereo not given in full) ; Activity = 35

Value of Activity reported for the molecule CC1(C)CC[C@]2(C(=O)NCCCOCCCCOCCCNc3cccc4c3C(=O)N(C3CCC(=O)NC3=O)C4=O)CC[C@]3(C)C(=CC[C@@H]4[C@@]5(C)CC[C@H](O)C(C)(C)[C@@H]5CC[C@]43C)[C@@H]2C1 (stereo not given in full) is 62

====

# system: Protein cereblon/Tyrosine-protein phosphatase non-receptor type 1 (Homo sapiens, UniProt P18031+Q96SW2)
# measurement_description: PROTAC activity at PTP1B/CRBN in insulin treated human HepG2 cells assessed as protein degradation at 1250 nM incubated for 72 hrs by Western blot analysis relative to control
# Type: cell-based
quantity: Activity (%)
The figure you give is taken to be in %; do not add the unit.

The recorded Activity for CC1(C)CC[C@]2(C(=O)NCCCOCCOCCOCCCNc3cccc4c3C(=O)N(C3CCC(=O)NC3=O)C4=O)CC[C@]3(C)C(=CC[C@@H]4[C@@]5(C)CC[C@H](O)C(C)(C)[C@@H]5CC[C@]43C)[C@@H]2C1 (stereo not given in full) is 24

Record summary for C[C@H]1[C@H](C)CC[C@]2(C(=O)NCCCCCCOCCOCCOCCOCC(=O)Nc3cccc4c3C(=O)N(C3CCC(=O)NC3=O)C4=O)CC[C@]3(C)C(=CC[C@@H]4[C@@]5(C)CC[C@H](O)C(C)(C)[C@@H]5CC[C@]43C)[C@H]12 (stereo not given in full) : reported Activity = 61

Noted for C[C@H]1[C@H](C)CC[C@]2(C(=O)NCCCCCCOCCOCCOCC(=O)Nc3cccc4c3C(=O)N(C3CCC(=O)NC3=O)C4=O)CC[C@]3(C)C(=CC[C@@H]4[C@@]5(C)CC[C@H](O)C(C)(C)[C@@H]5CC[C@]43C)[C@H]12 (stereo not given in full) : its Activity reads 56

Consider CC1(C)CC[C@]2(C(=O)NCCCCCCOCCOCCOCCOCCCCCC(=O)Nc3cccc4c3C(=O)N(C3CCC(=O)NC3=O)C4=O)CC[C@]3(C)C(=CC[C@@H]4[C@@]5(C)CC[C@H](O)C(C)(C)[C@@H]5CC[C@]43C)[C@@H]2C1 (stereo not given in full) . Its measured Activity is 48

Consider CC1(C)CC[C@]2(C(=O)NCCCOCCCCOCCCNc3cccc4c3C(=O)N(C3CCC(=O)NC3=O)C4=O)CC[C@]3(C)C(=CC[C@@H]4[C@@]5(C)CC[C@H](O)C(C)(C)[C@@H]5CC[C@]43C)[C@@H]2C1 (stereo not given in full) . Its measured Activity is 53

====

Please respond with reported Activity for every item in the list.
# system: Protein cereblon/Tyrosine-protein phosphatase non-receptor type 1 (Homo sapiens, UniProt P18031+Q96SW2)
# measurement_description: PROTAC activity at PTP1B/CRBN in insulin treated human HepG2 cells assessed as protein degradation at 5000 nM incubated for 48 hrs by Western blot analysis relative to control
# Type: cell-based
Write the answer as a number in %, unit excluded.

Kindly note the recorded Activity for CC1(C)CC[C@]2(C(=O)NCCCCCCNc3cccc4c3C(=O)N(C3CCC(=O)NC3=O)C4=O)CC[C@]3(C)C(=CC[C@@H]4[C@@]5(C)CC[C@H](O)C(C)(C)[C@@H]5CC[C@]43C)[C@@H]2C1 (stereo not given in full) , which is 29

The value of Activity measured for the compound CC1(C)CC[C@]2(C(=O)NCCCCCCOCCOCCOCCCCCC(=O)Nc3cccc4c3C(=O)N(C3CCC(=O)NC3=O)C4=O)CC[C@]3(C)C(=CC[C@@H]4[C@@]5(C)CC[C@H](O)C(C)(C)[C@@H]5CC[C@]43C)[C@@H]2C1 (stereo not given in full) turned out to be 22

For record O=C1CCC(N2C(=O)c3cccc(NC(=O)CCCCCOCCOCCCCCCNC(=O)c4cccc(NC(=O)CSc5nc6ccccc6[nH]5)c4)c3C2=O)C(=O)N1 (stereo not given) the listed Activity is 10

// C[C@H]1[C@H](C)CC[C@]2(C(=O)NCCCCCCNc3cccc4c3C(=O)N(C3CCC(=O)NC3=O)C4=O)CC[C@]3(C)C(=CC[C@@H]4[C@@]5(C)CC[C@H](O)C(C)(C)[C@@H]5CC[C@]43C)[C@H]12 (stereo not given in full) : Activity value = 14

====

# system: Protein cereblon/Tyrosine-protein phosphatase non-receptor type 1 (Homo sapiens, UniProt P18031+Q96SW2)
# measurement_description: PROTAC activity at PTP1B/CRBN in insulin treated human HepG2 cells assessed as protein degradation at 1 nM incubated for 48 hrs by Western blot analysis relative to control
# Assay type: cell-based
quantity: Activity (%)
Write it as a number; the unit % goes unstated.

Measured Activity, CC1(C)CC[C@]2(C(=O)NCCCOCCCCOCCCNc3cccc4c3C(=O)N(C3CCC(=O)NC3=O)C4=O)CC[C@]3(C)C(=CC[C@@H]4[C@@]5(C)CC[C@H](O)C(C)(C)[C@@H]5CC[C@]43C)[C@@H]2C1 (stereo not given in full) : 33

Activity in this record for CC1(C)CC[C@]2(C(=O)NCCCCCCOCCOCCOCCOCCCCCC(=O)Nc3cccc4c3C(=O)N(C3CCC(=O)NC3=O)C4=O)CC[C@]3(C)C(=CC[C@@H]4[C@@]5(C)CC[C@H](O)C(C)(C)[C@@H]5CC[C@]43C)[C@@H]2C1 (stereo not given in full) : 8

The measured Activity associated with C[C@H]1[C@H](C)CC[C@]2(C(=O)NCCCCCCOCCOCCOCC(=O)Nc3cccc4c3C(=O)N(C3CCC(=O)NC3=O)C4=O)CC[C@]3(C)C(=CC[C@@H]4[C@@]5(C)CC[C@H](O)C(C)(C)[C@@H]5CC[C@]43C)[C@H]12 (stereo not given in full) reads 8

molecule CC1(C)CC[C@]2(C(=O)NCCCOCCOCCOCCCNc3cccc4c3C(=O)N(C3CCC(=O)NC3=O)C4=O)CC[C@]3(C)C(=CC[C@@H]4[C@@]5(C)CC[C@H](O)C(C)(C)[C@@H]5CC[C@]43C)[C@@H]2C1 (stereo not given in full) , Activity observed: 24

Looking up C[C@H]1[C@H](C)CC[C@]2(C(=O)NCCCCCCOCCOCCOCCOCC(=O)Nc3cccc4c3C(=O)N(C3CCC(=O)NC3=O)C4=O)CC[C@]3(C)C(=CC[C@@H]4[C@@]5(C)CC[C@H](O)C(C)(C)[C@@H]5CC[C@]43C)[C@H]12 (stereo not given in full) , I found its Activity recorded as 37

====

# system: Protein cereblon/Tyrosine-protein phosphatase non-receptor type 1 (Homo sapiens, UniProt P18031+Q96SW2)
# measurement_description: PROTAC activity at PTP1B/CRBN in insulin treated human HepG2 cells assessed as protein degradation at 125 nM incubated for 72 hrs by Western blot analysis relative to control
# Assay type: cell-based
Exercise: state measured Activity for each of the compounds provided.
// units = %; emit number, no label

response.value for CC1(C)CC[C@]2(C(=O)NCCCOCCOCCOCCCNc3cccc4c3C(=O)N(C3CCC(=O)NC3=O)C4=O)CC[C@]3(C)C(=CC[C@@H]4[C@@]5(C)CC[C@H](O)C(C)(C)[C@@H]5CC[C@]43C)[C@@H]2C1 (stereo partly drawn) (field: Activity) = 41

Summary for this compound, CC1(C)CC[C@]2(C(=O)NCCCCCCOCCOCCOCCOCCCCCC(=O)Nc3cccc4c3C(=O)N(C3CCC(=O)NC3=O)C4=O)CC[C@]3(C)C(=CC[C@@H]4[C@@]5(C)CC[C@H](O)C(C)(C)[C@@H]5CC[C@]43C)[C@@H]2C1 (stereo partly drawn) : Activity is 58

GET /value?item= C[C@H]1[C@H](C)CC[C@]2(C(=O)NCCCCCCOCCOCCOCCOCC(=O)Nc3cccc4c3C(=O)N(C3CCC(=O)NC3=O)C4=O)CC[C@]3(C)C(=CC[C@@H]4[C@@]5(C)CC[C@H](O)C(C)(C)[C@@H]5CC[C@]43C)[C@H]12 (stereo partly drawn) &field=Activity returns 32
